// provenance: patent US8933221B2

Biological target: BACE1 enzyme (Homo sapiens, UniProt P56817)
Sequence (P56817 46-501 limits assumed): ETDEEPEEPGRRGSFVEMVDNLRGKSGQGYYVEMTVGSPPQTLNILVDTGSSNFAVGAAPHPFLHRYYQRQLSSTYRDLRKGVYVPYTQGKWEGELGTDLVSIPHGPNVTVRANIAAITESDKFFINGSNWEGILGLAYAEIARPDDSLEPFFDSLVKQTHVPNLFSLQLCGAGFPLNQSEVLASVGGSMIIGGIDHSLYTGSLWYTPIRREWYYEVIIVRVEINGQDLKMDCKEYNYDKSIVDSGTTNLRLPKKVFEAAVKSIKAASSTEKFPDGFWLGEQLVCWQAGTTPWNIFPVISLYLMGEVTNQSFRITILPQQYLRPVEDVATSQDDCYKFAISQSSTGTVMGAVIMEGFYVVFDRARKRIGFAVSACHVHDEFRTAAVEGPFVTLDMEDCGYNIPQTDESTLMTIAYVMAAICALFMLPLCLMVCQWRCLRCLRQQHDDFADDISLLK
Assay: BACE1 cell-free assay (fluorescence polarization, synthetic APP substrate)
Assay type: biochemical
Conditions: geometric mean of 2-4 determinations; values marked b from a single determination
Counter-ions that a name gives are not always drawn.
readout.label: IC50 (µM)
Note: unit µM is implicit; provide only the numeric part.

See these solved cases before continuing.
NC1=N[C@@]2(c3ccccc3F)CO[C@@H](COc3ncccn3)C[C@H]2CS1 [Example 22, trifluoroacetic acid salt]; 8.03
NC1=N[C@@]2(c3ccc(F)cc3)COCC[C@H]2CS1 (relative stereo) [Example 11]; 7.52
NC1=N[C@@]2(c3ccc(F)cc3F)CO[C@@H](CO)C[C@H]2CS1 [Example 3]; 2.27
NC1=N[C@@]2(c3ccccc3F)CO[C@@H](COc3cnccn3)C[C@H]2CS1 [Example 21, trifluoroacetic acid salt]; 2.03

Now turn to the next compound.
# IC50 (compound: NC1=N[C@@]2(c3ccccc3F)CO[C@@H](COC(=O)c3ccccc3)C[C@H]2CS1 [Example 15] ) is 13

---

Target: BACE1 enzyme (Homo sapiens, UniProt P56817)
Assay: BACE1 cell-free assay (fluorescence polarization, synthetic APP substrate);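 further: soluble His-tagged BACE1 purified from transfected CHO-K1 cell media, biotinylated Oregon Green-labelled peptide substrate, 3 h at 37 °C, cleavage followed as change in fluorescence polarization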
Format: biochemical
Conditions: geometric mean of 2-4 determinations; values marked b from a single determination
Structures can show the parent of a compound that is named as a salt.
readout.label: IC50 (µM)
Note: unit µM is implicit; provide only the numeric part.

See these solved cases before continuing.
NC1=N[C@@]2(c3ccccc3F)CO[C@@H](COc3ccccn3)C[C@H]2CS1 [Example 8]; 2.38
NC1=N[C@@]2(c3ccc(O)cc3F)COCC[C@H]2CS1 (relative stereo) [Example 18, ammonium salt]; 5.35
NC1=N[C@@]2(c3ccccc3F)CO[C@@H](CF)C[C@H]2CS1 [Example 5]; 0.838

Now turn to the next molecule.
# IC50 (molecule: NC1=N[C@@]2(c3ccccc3)COCC[C@H]2CS1 (relative stereo) [Example 14] ) is 10.4
